system: P. aeruginosa WT (PAO1); assay: MIC, CLSI broth microdilution, P. aeruginosa; type: cell-based; settings: Pseudomonas aeruginosa, PAO1; CLSI broth microdilution; read-out: P. aeruginosa WT (PAO1) MIC
Could you please report measured MIC for the items listed next?

Request: What value of measured MIC is listed for CN/C(=N\OC(=O)NCC1CCNCC1)[C@@H]1c2c(cnn2C)[C@@H]2CN1C(=O)N2OS(=O)(=O)O (racemic) ?
Response: < 8 µg/mL

Request: Same for Cn1ncc2c1[C@@H](CN)N1C[C@@H]2N(OS(=O)(=O)O)C1=O [Comparator 1, reference compound]
Response: < 8 µg/mL

Request: Same for `CCN1CCN(C(=O)NC/C(=N\O)[C@@H]2c3c(cnn3C)[C@@H]3CN2C(=O)N3OS(=O)(=O)O)C(=O)C1=O`
Response: > 16 µg/mL

Request: Same for CN/C(=N\OCC(=O)NCCCC[C@H](N)C(=O)O)[C@@H]1c2c(cnn2C)[C@@H]2CN1C(=O)N2OS(=O)(=O)O (racemic)
Response: 8 to 16 µg/mL

Request: Same for CN/C(=N\OC(=O)N[C@H]1CC[C@H](N)CC1)[C@@H]1c2c(cnn2C)[C@@H]2CN1C(=O)N2OS(=O)(=O)O (racemic)
Response: < 8 µg/mL
